Examples of compounds with documented viability, T/C follow.
Tested on: 616215-338-R-J1-PDC tumor spheroids, viability
EXPERIMENT SUMMARY: Anticancer human tumor 616215-338-R-J1-PDC patient-derived colon adenocarcinoma cell line growth inhibition [GQUAD]
CONDITION INFO: second compound 0.316 µM; first compound 1 µM; stronger effect = lower value; spheroids with HUVEC and MSC
Write down the numeric answer in % and omit the unit.

Reference set, count: 4
INSERT INTO assay_data (compound, study_system, units_text, reading) VALUES
  ('C=CCn1c(=O)c2cnc(Nc3ccc(N4CCN(C)CC4)cc3)nc2n1-c1cccc(C(C)(C)O)n1 + Cc1[nH]c2ccc(F)cc2c1-c1nc2c3cccnc3c3ncccc3c2[nH]1', '616215-338-R-J1-PDC tumor spheroids, viability', '%', 25.4),
  ('Nc1ccn(C2OC(CO)C(O)C2(F)F)c(=O)n1 (stereo not given) + CN(C)c1ccc(Nc2c3ccc(NC(=O)CCN4CCCC4)cc3nc3cc(NC(=O)CCN4CCCC4)ccc23)cc1', '616215-338-R-J1-PDC tumor spheroids, viability', '%', 7.36),
  ('CC(C)(O)C1CCC(Nc2ccc3ncc(-c4cccc(C(F)(F)F)c4)n3n2)CC1 (stereo not given) + Cc1cnc(CNC(=O)c2c(=O)c3ccc(N4CCCN(C)CC4)nc3n3c2sc2ccccc23)cn1', '616215-338-R-J1-PDC tumor spheroids, viability', '%', 14.8),
  ('CC(=O)O[C@H]1C(=O)[C@@]2(C)[C@H]([C@H](OC(=O)c3ccccc3)[C@]3(O)C[C@H](OC(=O)[C@H](O)[C@@H](NC(=O)c4ccccc4)c4ccccc4)C(C)=C1C3(C)C)[C@]1(OC(C)=O)CO[C@@H]1C[C@@H]2O + Cc1cnc(CNC(=O)c2c(=O)c3ccc(N4CCCN(C)CC4)nc3n3c2sc2ccccc23)cn1', '616215-338-R-J1-PDC tumor spheroids, viability', '%', 36.4);

Consider the additional compound presented here.
get_value(item= COc1ncnc(C2CC2)c1-c1ncc2cnn(Cc3ccc(-c4nc(C(F)(F)F)cn4C(C)C)cc3)c2n1 + Cc1[nH]c2ccc(F)cc2c1-c1nc2c3cccnc3c3ncccc3c2[nH]1 , readout=viability, T/C) returns 99.8

* * *

Tested on: 616215-338-R-J1-PDC tumor spheroids, viability
EXPERIMENT SUMMARY: Anticancer human tumor 616215-338-R-J1-PDC cell line growth inhibition [GQUAD];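 also: spheroids exposed to agents for 7 days before readout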
CONDITION INFO: curve of first compound; second compound 1 µM; spheroids with HUVEC and MSC
TEST READOUT: pIC50
Note: pIC50 values are expressed as the negative base-10 logarithm of concentration in M.

INSERT INTO results (compound, study_system, test_readout, reading) VALUES
  ('CC1COCCN1c1cc(-c2ccnn2C)c2ccnc(-c3ccn[nH]3)c2n1 (stereo not given) + CN(C)c1ccc(Nc2c3ccc(NC(=O)CCN4CCCC4)cc3nc3cc(NC(=O)CCN4CCCC4)ccc23)cc1', '616215-338-R-J1-PDC tumor spheroids, viability', 'pIC50', 6.85);

get_value(item= O=C(NO)c1cnc(N2CCN(S(=O)(=O)c3ccc4ccccc4c3)CC2)nc1 + Cc1[nH]c2ccc(F)cc2c1-c1nc2c3cccnc3c3ncccc3c2[nH]1 , readout=pIC50) returns 6.43

* * *

Tested on: 616215-338-R-J1-PDC tumor spheroids, viability
EXPERIMENT SUMMARY: Anticancer human tumor 616215-338-R-J1-PDC cell line growth inhibition [GQUAD]; active = viability on the fitted dose curve at most 10% of control; inactive = the rest;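 also: spheroids exposed to agents for 7 days before readout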
CONDITION INFO: second compound 0.1 µM; first compound 1 µM; spheroids with HUVEC and MSC
// allowed return values: 1 (active), -1 (inactive)

Solved cases (4 shown):
INSERT INTO measurements (compound, classification) VALUES
  ('Nc1ccn(C2OC(CO)C(O)C2(F)F)c(=O)n1 (stereo unspecified) + CN(C)c1ccc(Nc2c3ccc(NC(=O)CCN4CCCC4)cc3nc3cc(NC(=O)CCN4CCCC4)ccc23)cc1', -1),
  ('Cc1cccc(N(C)C(=O)C2C(O)CCN2c2nc(C)cc(C(F)(F)F)c2C#N)c1 (stereo unspecified) + Cc1[nH]c2ccc(F)cc2c1-c1nc2c3cccnc3c3ncccc3c2[nH]1', -1),
  ('COc1cc(C2c3cc4c(cc3C(OC3OC5COC(C)OC5C(O)C3O)C3COC(=O)C23)OCO4)cc(OC)c1O (stereo unspecified) + Cc1[nH]c2ccc(F)cc2c1-c1nc2c3cccnc3c3ncccc3c2[nH]1', -1),
  ('C=CC(=O)N1CCN(c2nc(=O)n(-c3c(C)ccnc3C(C)C)c3nc(-c4c(O)cccc4F)c(F)cc23)C(C)C1 (stereo unspecified) + CN(C)c1ccc(Nc2c3ccc(NC(=O)CCN4CCCC4)cc3nc3cc(NC(=O)CCN4CCCC4)ccc23)cc1', -1);

(Q) Per the assay record, what outcome was assigned to C=CCn1c(=O)c2cnc(Nc3ccc(N4CCN(C)CC4)cc3)nc2n1-c1cccc(C(C)(C)O)n1 + Cc1cnc(CNC(=O)c2c(=O)c3ccc(N4CCCN(C)CC4)nc3n3c2sc2ccccc23)cn1 ?
(A) -1

(Q) Per the assay record, what outcome was assigned to O=c1[nH]cc(F)c(=O)[nH]1 + CN(C)c1ccc(Nc2c3ccc(NC(=O)CCN4CCCC4)cc3nc3cc(NC(=O)CCN4CCCC4)ccc23)cc1 ?
(A) -1

(Q) Per the assay record, what outcome was assigned to CC1COCCN1c1cc(C2(S(C)(=N)=O)CC2)nc(-c2ccnc3[nH]ccc23)n1 (stereo unspecified) + Cc1cnc(CNC(=O)c2c(=O)c3ccc(N4CCCN(C)CC4)nc3n3c2sc2ccccc23)cn1 ?
(A) -1

(Q) Per the assay record, what outcome was assigned to CC(C)(O)C1CCC(Nc2ccc3ncc(-c4cccc(C(F)(F)F)c4)n3n2)CC1 (stereo unspecified) + Cc1[nH]c2ccc(F)cc2c1-c1nc2c3cccnc3c3ncccc3c2[nH]1 ?
(A) -1

(Q) Per the assay record, what outcome was assigned to COc1ccc([C@@H](O)c2cc(-c3ncnc4cc(N5CCOCC5)ccc34)c(F)cc2Cl)nn1 + CN(C)c1ccc(Nc2c3ccc(NC(=O)CCN4CCCC4)cc3nc3cc(NC(=O)CCN4CCCC4)ccc23)cc1 ?
(A) -1

(Q) Per the assay record, what outcome was assigned to CC(C)n1c(=O)n(C)c2cnc3cc(F)c(-c4ccc(OCCCN5CCCCC5)nc4)cc3c21 + Cc1[nH]c2ccc(F)cc2c1-c1nc2c3cccnc3c3ncccc3c2[nH]1 ?
(A) -1

(Q) Per the assay record, what outcome was assigned to O=C(NO)c1cnc(N2CCN(S(=O)(=O)c3ccc4ccccc4c3)CC2)nc1 + CN(C)c1ccc(Nc2c3ccc(NC(=O)CCN4CCCC4)cc3nc3cc(NC(=O)CCN4CCCC4)ccc23)cc1 ?
(A) 1

* * *

Test system: 616215-338-R-J1-PDC tumor spheroids, viability
EXPERIMENT SUMMARY: Anticancer human tumor 616215-338-R-J1-PDC cell line growth inhibition [GQUAD];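 also: spheroids exposed to agents for 7 days before readout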;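 as to viability, T/C: percent viability relative to DMSO vehicle control wells taken as 100%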
CONDITION INFO: second compound 0.316 µM; first compound 0.316 µM; stronger effect = lower value; spheroids with HUVEC and MSC
TEST READOUT: viability, T/C (%)
Write down the numeric answer in % and omit the unit.

INSERT INTO results (compound, study_system, test_readout, units_text, reading) VALUES
  ('O=C(NO)c1cnc(N2CCN(S(=O)(=O)c3ccc4ccccc4c3)CC2)nc1 + Cc1cnc(CNC(=O)c2c(=O)c3ccc(N4CCCN(C)CC4)nc3n3c2sc2ccccc23)cn1', '616215-338-R-J1-PDC tumor spheroids, viability', 'viability, T/C', '%', 28.5),
  ('O=C(c1cc(Cc2n[nH]c(=O)c3ccccc23)ccc1F)N1CCN(C(=O)C2CC2)CC1 + CN(C)c1ccc(Nc2c3ccc(NC(=O)CCN4CCCC4)cc3nc3cc(NC(=O)CCN4CCCC4)ccc23)cc1', '616215-338-R-J1-PDC tumor spheroids, viability', 'viability, T/C', '%', 112);

get_value(item= CCCS(=O)(=O)Nc1ccc(F)c(C(=O)c2c[nH]c3ncc(-c4ccc(Cl)cc4)cc23)c1F + Cc1cnc(CNC(=O)c2c(=O)c3ccc(N4CCCN(C)CC4)nc3n3c2sc2ccccc23)cn1 , readout=viability, T/C) returns 38.5

* * *

Tested on: 616215-338-R-J1-PDC tumor spheroids, viability
EXPERIMENT SUMMARY: Anticancer human tumor 616215-338-R-J1-PDC cell line growth inhibition [GQUAD];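 also: spheroids exposed to agents for 7 days before readout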;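 as to viability, T/C: percent viability relative to DMSO vehicle control wells taken as 100%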
CONDITION INFO: second compound 0.1 µM; first compound 0.1 µM; stronger effect = lower value; spheroids with HUVEC and MSC
Examples of compounds with documented viability, T/C follow.
Write down the numeric answer in % and omit the unit.

Reference set, count: 8
INSERT INTO measurements (compound, study_system, test_readout, units_text, reading) VALUES
  ('C#Cc1c(F)ccc2cc(O)cc(-c3ncc4c(N5CC6CCC(C5)N6)nc(OCC56CCCN5CC(F)C6)nc4c3F)c12 (stereo unspecified) + Cc1[nH]c2ccc(F)cc2c1-c1nc2c3cccnc3c3ncccc3c2[nH]1', '616215-338-R-J1-PDC tumor spheroids, viability', 'viability, T/C', '%', 111),
  ('COc1cccc2c1C(=O)c1c(O)c3c(c(O)c1C2=O)CC(O)(C(=O)CO)CC3OC1CC(N)C(O)C(C)O1 (stereo unspecified) + CN(C)c1ccc(Nc2c3ccc(NC(=O)CCN4CCCC4)cc3nc3cc(NC(=O)CCN4CCCC4)ccc23)cc1', '616215-338-R-J1-PDC tumor spheroids, viability', 'viability, T/C', '%', 92.3),
  ('CC1COCCN1c1cc(C2(O)CC3CCC(C2)O3)c2cnn(-c3ccn[nH]3)c2n1 (stereo unspecified) + Cc1cnc(CNC(=O)c2c(=O)c3ccc(N4CCCN(C)CC4)nc3n3c2sc2ccccc23)cn1', '616215-338-R-J1-PDC tumor spheroids, viability', 'viability, T/C', '%', 35.2),
  ('COc1cc(C2c3cc4c(cc3C(OC3OC5COC(C)OC5C(O)C3O)C3COC(=O)C23)OCO4)cc(OC)c1O (stereo unspecified) + Cc1[nH]c2ccc(F)cc2c1-c1nc2c3cccnc3c3ncccc3c2[nH]1', '616215-338-R-J1-PDC tumor spheroids, viability', 'viability, T/C', '%', 101),
  ('CC1COCCN1c1cc(-c2ccnn2C)c2ccnc(-c3ccn[nH]3)c2n1 (stereo unspecified) + Cc1cnc(CNC(=O)c2c(=O)c3ccc(N4CCCN(C)CC4)nc3n3c2sc2ccccc23)cn1', '616215-338-R-J1-PDC tumor spheroids, viability', 'viability, T/C', '%', 35.8),
  ('CC1COCCN1c1cc(-c2ccnn2C)c2ccnc(-c3ccn[nH]3)c2n1 (stereo unspecified) + Cc1[nH]c2ccc(F)cc2c1-c1nc2c3cccnc3c3ncccc3c2[nH]1', '616215-338-R-J1-PDC tumor spheroids, viability', 'viability, T/C', '%', 56.3),
  ('CC(C)n1c(=O)n(C)c2cnc3cc(F)c(-c4ccc(OCCCN5CCCCC5)nc4)cc3c21 + CN(C)c1ccc(Nc2c3ccc(NC(=O)CCN4CCCC4)cc3nc3cc(NC(=O)CCN4CCCC4)ccc23)cc1', '616215-338-R-J1-PDC tumor spheroids, viability', 'viability, T/C', '%', 104),
  ('O=c1[nH]cc(F)c(=O)[nH]1 + Cc1cnc(CNC(=O)c2c(=O)c3ccc(N4CCCN(C)CC4)nc3n3c2sc2ccccc23)cn1', '616215-338-R-J1-PDC tumor spheroids, viability', 'viability, T/C', '%', 62.4);

get_value(item= COc1cccc2c1C(=O)c1c(O)c3c(c(O)c1C2=O)CC(O)(C(=O)CO)CC3OC1CC(N)C(O)C(C)O1 (stereo unspecified) + Cc1cnc(CNC(=O)c2c(=O)c3ccc(N4CCCN(C)CC4)nc3n3c2sc2ccccc23)cn1 , readout=viability, T/C) returns 67.4

get_value(item= O=c1[nH]cc(F)c(=O)[nH]1 + Cc1[nH]c2ccc(F)cc2c1-c1nc2c3cccnc3c3ncccc3c2[nH]1 , readout=viability, T/C) returns 94.4

get_value(item= Cc1cccc(N(C)C(=O)C2C(O)CCN2c2nc(C)cc(C(F)(F)F)c2C#N)c1 (stereo unspecified) + Cc1cnc(CNC(=O)c2c(=O)c3ccc(N4CCCN(C)CC4)nc3n3c2sc2ccccc23)cn1 , readout=viability, T/C) returns 68.2

All values here come from PubChem BioAssay AID2060493.
